biological target: human NCX1 (Homo sapiens); construct: expressed in transfected cells; assay: Inhibition of Ca2+ influx into cells (NCX1 reverse mode), FLIPR Fluo-4 assay; type: cell-based; details: inhibition of NCX1 in reverse mode (Ca2+ influx into cells); read-out: NCX1rv IC50
Where a name gives a salt, the structure may show the parent alone.
Dear colleague, classification is by IC50, with ranges listed here: b0: < 800 nM; b1: ≥ 800 nM and < 2000 nM; b2: ≥ 2000 nM

[
  {
    "compound": "Cc1cccc(C)c1C1CCc2cc(O[C@H]3CC[C@H](N)CC3)ccc2O1 (relative stereo) [compound 168, hydrochloride]",
    "class": "b2"
  },
  {
    "compound": "Fc1ccccc1C1CCc2cc(OC3CCC(NCCC4CCOCC4)CC3)ccc2O1 (stereo not shown)",
    "class": "b2"
  },
  {
    "compound": "FC(F)(F)CCN[C@H]1CC[C@H](Oc2ccc3c(c2)CCC(c2ccccc2)O3)CC1 (relative stereo)",
    "class": "b0"
  },
  {
    "compound": "CC(=O)NC[C@H]1CC[C@@H](Oc2ccc3c(c2)CCC(c2ccccc2)O3)CC1 (relative stereo)",
    "class": "b0"
  },
  {
    "compound": "Cn1cncc1CN[C@H]1CC[C@H](Oc2ccc3c(c2)CCC(c2ccccc2)O3)CC1 (stereo partly shown)",
    "class": "b0"
  },
  {
    "compound": "Fc1ccccc1C1CCc2cc(OC3CCC(NCCCC4CCOC4)CC3)ccc2O1 (stereo not shown)",
    "class": "b2"
  },
  {
    "compound": "Fc1ccccc1C1CCc2cc(OC3CCC(NCC4CCCO4)CC3)ccc2O1 (stereo not shown)",
    "class": "b1"
  },
  {
    "compound": "O=S1(=O)CCC(NC2CCC(Oc3ccc4c(c3)CCC(c3ccccc3F)O4)CC2)C1 (stereo not shown)",
    "class": "b1"
  },
  {
    "compound": "CC(C)C(C)NC1CCC(Oc2ccc3c(c2)CCC(c2ccccc2)O3)CC1 (stereo not shown)",
    "class": "b1"
  },
  {
    "compound": "Fc1ccccc1C1CCc2cc(O[C@H]3CC[C@H](NCC4CCOC4)CC3)ccc2O1 (relative stereo)",
    "class": "b1"
  },
  {
    "compound": "COCC(C)(C)CNC1CCC(Oc2ccc3c(c2)CCC(c2ccccc2F)O3)CC1 (stereo not shown)",
    "class": "b2"
  },
  {
    "compound": "NC[C@H]1CC[C@@H](Oc2ccc3c(c2)CCC(c2ccccc2)O3)CC1 (relative stereo) [compound 1, hydrochloride]",
    "class": "b0"
  },
  {
    "compound": "CC1Cc2cc(OC3CCC(C(=O)NCc4ccno4)CC3)ccc2OC1c1ccccc1 (stereo not shown)",
    "class": "b1"
  },
  {
    "compound": "CCCN(CCC)[C@H]1CC[C@H](Oc2ccc3c(c2)CC[C@@H](c2ccccc2)O3)CC1",
    "class": "b1"
  },
  {
    "compound": "CCCC1(N)CCC(Oc2ccc3c(c2)CCC(c2ccccc2)O3)CC1 (stereo not shown) [compound 17, hydrochloride]",
    "class": "b1"
  },
  {
    "compound": "Cc1ccccc1C1CCc2cc(O[C@H]3CC[C@H](NCC4CCOC4)CC3)ccc2O1 (relative stereo)",
    "class": "b2"
  },
  {
    "compound": "COCCCNC1CCC(Oc2ccc3c(c2)CCC(c2ccccc2)O3)CC1 (stereo not shown)",
    "class": "b0"
  },
  {
    "compound": "O=C(Cn1cncn1)N[C@H]1CC[C@H](Oc2ccc3c(c2)CCC(c2ccccc2F)O3)CC1 (relative stereo)",
    "class": "b0"
  },
  {
    "compound": "Clc1ccc(CN[C@H]2CC[C@H](Oc3ccc4c(c3)CCC(c3ccccc3)O4)CC2)s1 (stereo partly shown)",
    "class": "b1"
  },
  {
    "compound": "Cc1cc2c(cc1OC1CCC(C(=O)NCCO)CC1)CCC(c1ccccc1C)O2 (stereo not shown)",
    "class": "b1"
  },
  {
    "compound": "Cc1ccccc1C1CCc2cc(O[C@H]3CC[C@@H](CNC(=O)CN)CC3)ccc2O1 (relative stereo) [compound 185, hydrochloride]",
    "class": "b0"
  },
  {
    "compound": "c1ccc(C2CCc3cc(OC4CCC(NCCCC5CCOC5)CC4)ccc3O2)cc1 (stereo not shown)",
    "class": "b0"
  },
  {
    "compound": "Cc1ccccc1C1CCc2cc(OC3CCC(NC4CCS(=O)(=O)C4)CC3)ccc2O1 (stereo not shown)",
    "class": "b1"
  },
  {
    "compound": "CSC(C)CCN[C@H]1CC[C@H](Oc2ccc3c(c2)CCC(c2ccccc2)O3)CC1 (stereo partly shown)",
    "class": "b0"
  },
  {
    "compound": "Cc1cccc(C)c1C1CCc2cc(OC3CCC(C(=O)NCc4ccno4)CC3)ccc2O1 (stereo not shown)",
    "class": "b2"
  },
  {
    "compound": "Cc1nc(CN[C@H]2CC[C@H](Oc3ccc4c(c3)CCC(c3ccccc3)O4)CC2)cs1 (stereo partly shown)",
    "class": "b0"
  },
  {
    "compound": "CN(C)C(=O)NC1CCC(Oc2ccc3c(c2)CCC(c2ccccc2)O3)CC1 (stereo not shown)",
    "class": "b1"
  },
  {
    "compound": "CCn1nccc1CNC(=O)C1CCC(Oc2cc3c(cc2C)OC(c2ccccc2C)CC3)CC1 (stereo not shown)",
    "class": "b1"
  },
  {
    "compound": "O=C(NCc1ccno1)C1CCC(Oc2ccc3c(c2Cl)CCC(c2ccccc2)O3)CC1 (stereo not shown)",
    "class": "b1"
  }
]

====

target: human NCX1 (Homo sapiens); construct: expressed in transfected cells; assay: Inhibition of Ca2+ influx into cells (NCX1 reverse mode), FLIPR Fluo-4 assay; type: cell-based; details: inhibition of NCX1 in reverse mode (Ca2+ influx into cells); read-out: NCX1rv IC50
pIC50: −log10 of the molar value.

[
  {
    "compound": "CCCN[C@H]1CC[C@H](Oc2ccc3c(c2)CC[C@@H](c2ccccc2)O3)CC1",
    "pIC50": 6.30
  },
  {
    "compound": "COCC(C)NC1CCC(Oc2ccc3c(c2)CCC(c2ccccc2)O3)CC1 (stereo not drawn)",
    "pIC50": 5.89
  },
  {
    "compound": "Cc1nn(C)c(C)c1CNC1CCC(Oc2ccc3c(c2)CCC(c2ccccc2F)O3)CC1 (stereo not drawn)",
    "pIC50": 5.60
  },
  {
    "compound": "CCn1nccc1CNC1CCC(Oc2ccc3c(c2)CCC(c2ccccc2)O3)CC1 (stereo not drawn)",
    "pIC50": 6.00
  },
  {
    "compound": "Cc1ccccc1C1CCc2cc(OC3CCC(C(=O)NC(CO)CO)CC3)ccc2O1 (stereo not drawn)",
    "pIC50": 6.70
  },
  {
    "compound": "CCn1nccc1CNC(=O)C1CCC(Oc2ccc3c(c2)CCC(c2ccccc2)O3)CC1 (single isomer, unassigned; stereoisomer 2) [compound 94]",
    "pIC50": 5.80
  },
  {
    "compound": "Cc1cc(CC(=O)N[C@H]2CC[C@H](Oc3ccc4c(c3)CCC(c3ccccc3F)O4)CC2)on1 (relative stereo)",
    "pIC50": 5.96
  },
  {
    "compound": "Cc1nc(CC(=O)N[C@H]2CC[C@H](Oc3ccc4c(c3)CCC(c3ccccc3)O4)CC2)c(C)s1 (relative stereo)",
    "pIC50": 6.52
  },
  {
    "compound": "CCC(COC)NC1CCC(Oc2ccc3c(c2)CCC(c2ccccc2F)O3)CC1 (stereo not drawn)",
    "pIC50": 5.51
  },
  {
    "compound": "Cc1c(F)cccc1C1CCc2cc(OC3CCC(C(=O)NCCO)CC3)ccc2O1 (stereo not drawn)",
    "pIC50": 6.70
  },
  {
    "compound": "CC(CN(C)C)NC1CCC(Oc2ccc3c(c2)CCC(c2ccccc2)O3)CC1 (stereo not drawn)",
    "pIC50": 5.77
  },
  {
    "compound": "O=C(CCn1cccn1)N[C@H]1CC[C@H](Oc2ccc3c(c2)CCC(c2ccccc2F)O3)CC1 (single isomer, unassigned) [compound 179]",
    "pIC50": 5.92
  },
  {
    "compound": "CCCCNC1CCC(Oc2ccc3c(c2)CCC(c2ccccc2)O3)CC1 (stereo not drawn)",
    "pIC50": 6.22
  },
  {
    "compound": "O=C(CCn1cncn1)N[C@H]1CC[C@H](Oc2ccc3c(c2)CCC(c2ccccc2F)O3)CC1 (relative stereo)",
    "pIC50": 6.70
  },
  {
    "compound": "c1ccc(C2CCc3cc(O[C@H]4CC[C@H](NCc5ccoc5)CC4)ccc3O2)cc1 (stereo partly drawn)",
    "pIC50": 6.30
  }
]
